test system: H2228 cells; details: human, 3 days
// reported GI50 per item
// note: answer is a bare numeric in nM

[
  {
    "COMPOUND": "COC(=O)CCNCCc1ccc(OC)c(Nc2ncc(Cl)c(Nc3ccccc3S(=O)(=O)C(C)C)n2)c1 [Example 24]",
    "GI50 [nM]": 660
  }
]

In the following, a different compound is considered.
Entry COc1ccc(CCN(CCO)CCO)cc1Nc1ncc(Cl)c(Nc2ccccc2S(=O)(=O)C(C)C)n1 [Example 39] ; GI50 = 870

* * *

molecular target: ALK WT (Homo sapiens (Human)); conditions: read-out: ALK WT (IC50 μM); ALK enzyme, HTRF
IC50 vs 0.003 µM: less than gives Criterion met; not less than gives Criterion not met.

[
  {
    "COMPOUND": "CNC(C)(C)c1cc(OC)c(Nc2ncc(Cl)c(Nc3ccccc3S(=O)(=O)C(C)C)n2)cc1C [Example 64]",
    "LABEL": "Criterion met"
  },
  {
    "COMPOUND": "COc1cc(CCN(C)C)c(C)cc1Nc1ncc(Cl)c(Nc2ccccc2S(=O)(=O)C(C)C)n1 [Example 58]",
    "LABEL": "Criterion met"
  }
]

Please check: IC50 for CNCC(C)(C)c1cc(OC)c(Nc2ncc(Cl)c(Nc3ccccc3S(=O)(=O)C(C)C)n2)cc1C [Example 60] , strictly under 0.003 µM or not? Criterion met

Record COc1cc(CCNC=O)c(C)cc1Nc1ncc(Cl)c(Nc2ccccc2S(=O)(=O)C(C)C)n1 [Example 62] : is its IC50 strictly below 0.003 µM? Criterion not met

Given COc1cc(C(C)(C)N(C)C)c(C)cc1Nc1ncc(Cl)c(Nc2ccccc2S(=O)(=O)C(C)C)n1 [Example 66] , is recorded IC50 strictly lower than 0.003 µM? Criterion met

Hello, is IC50 of the following compound strictly smaller than 0.003 µM? CNCCc1cc(OC)c(Nc2ncc(Cl)c(Nc3ccccc3S(=O)(=O)C(C)C)n2)cc1C [Example 63] Criterion met

Find out if reported IC50 for COc1cc(C(C)(C)CN(C)C)c(C)cc1Nc1ncc(Cl)c(Nc2ccccc2S(=O)(=O)C(C)C)n1 [Example 65] is less than 0.003 µM Criterion met

Lab log: compare recorded IC50 with 0.003 µM; is it strictly lower for CNCc1cc(OC)c(Nc2ncc(Cl)c(Nc3ccccc3S(=O)(=O)C(C)C)n2)cc1C [Example 72] ? Criterion met

* * *

tested on: H3122 cells; assay: Cytotoxicity in non-small cell lung cancer cell line H3122 (SRB); assay type: cell-based, human
METRIC: GI50 (µM)
Record the value in µM, omitting the unit from your answer.

Noted for "COc1ccc(CCN2CCCCC2)cc1Nc1ncc(Cl)c(Nc2ccccc2S(=O)(=O)C(C)C)n1" : its GI50 reads 0.06

* * *

Test system: H3122 cells
Assay: Cytotoxicity in non-small cell lung cancer cell line H3122 (SRB)
Format: cell-based, human
Details: H3122 cells, three days, SRB
Protocol: Particularly, 4,000 H3122 cells containing ALK enzyme were distributed in each well of a 96 well plate together with 100 μl of DMEM (Dulbecco's Modified Eagle's Medium). […] Then, OD was measured to calculate the population of the live cells.
METRIC: GI50 (µM)
Lab book: enter the figure in µM, no units written.

# "COC(=O)CCNCCc1ccc(OC)c(Nc2ncc(Cl)c(Nc3ccccc3S(=O)(=O)C(C)C)n2)c1" with H3122 cells: GI50 is 0.09

For "COc1ccc(CC(=O)Nc2ccccc2)cc1Nc1ncc(Cl)c(Nc2ccccc2S(=O)(=O)C(C)C)n1" on H3122 cells, measured GI50 was 10

Reported H3122 cells GI50 for item "COc1ccc(C(C)(C)CN)cc1Nc1ncc(Cl)c(Nc2cc(F)ccc2S(=O)(=O)C(C)C)n1" was 10

Tested system H3122 cells; GI50 recorded for "CCN(CC)CCc1ccc(OC)c(Nc2ncc(Cl)c(Nc3ccccc3S(=O)(=O)C(C)C)n2)c1" was 0.05

Considering "COc1ccc(C2(CN3CCCCC3)CCCC2)cc1Nc1ncc(Cl)c(Nc2ccccc2S(=O)(=O)C(C)C)n1" , its GI50 with H3122 cells was recorded as 10

* * *

molecular target: ALK WT (Homo sapiens (Human), UniProt Q9UM73); conditions: read-out: ALK WT (IC50 μM); ALK enzyme, HTRF
Sequence (Q9UM73 19-1620): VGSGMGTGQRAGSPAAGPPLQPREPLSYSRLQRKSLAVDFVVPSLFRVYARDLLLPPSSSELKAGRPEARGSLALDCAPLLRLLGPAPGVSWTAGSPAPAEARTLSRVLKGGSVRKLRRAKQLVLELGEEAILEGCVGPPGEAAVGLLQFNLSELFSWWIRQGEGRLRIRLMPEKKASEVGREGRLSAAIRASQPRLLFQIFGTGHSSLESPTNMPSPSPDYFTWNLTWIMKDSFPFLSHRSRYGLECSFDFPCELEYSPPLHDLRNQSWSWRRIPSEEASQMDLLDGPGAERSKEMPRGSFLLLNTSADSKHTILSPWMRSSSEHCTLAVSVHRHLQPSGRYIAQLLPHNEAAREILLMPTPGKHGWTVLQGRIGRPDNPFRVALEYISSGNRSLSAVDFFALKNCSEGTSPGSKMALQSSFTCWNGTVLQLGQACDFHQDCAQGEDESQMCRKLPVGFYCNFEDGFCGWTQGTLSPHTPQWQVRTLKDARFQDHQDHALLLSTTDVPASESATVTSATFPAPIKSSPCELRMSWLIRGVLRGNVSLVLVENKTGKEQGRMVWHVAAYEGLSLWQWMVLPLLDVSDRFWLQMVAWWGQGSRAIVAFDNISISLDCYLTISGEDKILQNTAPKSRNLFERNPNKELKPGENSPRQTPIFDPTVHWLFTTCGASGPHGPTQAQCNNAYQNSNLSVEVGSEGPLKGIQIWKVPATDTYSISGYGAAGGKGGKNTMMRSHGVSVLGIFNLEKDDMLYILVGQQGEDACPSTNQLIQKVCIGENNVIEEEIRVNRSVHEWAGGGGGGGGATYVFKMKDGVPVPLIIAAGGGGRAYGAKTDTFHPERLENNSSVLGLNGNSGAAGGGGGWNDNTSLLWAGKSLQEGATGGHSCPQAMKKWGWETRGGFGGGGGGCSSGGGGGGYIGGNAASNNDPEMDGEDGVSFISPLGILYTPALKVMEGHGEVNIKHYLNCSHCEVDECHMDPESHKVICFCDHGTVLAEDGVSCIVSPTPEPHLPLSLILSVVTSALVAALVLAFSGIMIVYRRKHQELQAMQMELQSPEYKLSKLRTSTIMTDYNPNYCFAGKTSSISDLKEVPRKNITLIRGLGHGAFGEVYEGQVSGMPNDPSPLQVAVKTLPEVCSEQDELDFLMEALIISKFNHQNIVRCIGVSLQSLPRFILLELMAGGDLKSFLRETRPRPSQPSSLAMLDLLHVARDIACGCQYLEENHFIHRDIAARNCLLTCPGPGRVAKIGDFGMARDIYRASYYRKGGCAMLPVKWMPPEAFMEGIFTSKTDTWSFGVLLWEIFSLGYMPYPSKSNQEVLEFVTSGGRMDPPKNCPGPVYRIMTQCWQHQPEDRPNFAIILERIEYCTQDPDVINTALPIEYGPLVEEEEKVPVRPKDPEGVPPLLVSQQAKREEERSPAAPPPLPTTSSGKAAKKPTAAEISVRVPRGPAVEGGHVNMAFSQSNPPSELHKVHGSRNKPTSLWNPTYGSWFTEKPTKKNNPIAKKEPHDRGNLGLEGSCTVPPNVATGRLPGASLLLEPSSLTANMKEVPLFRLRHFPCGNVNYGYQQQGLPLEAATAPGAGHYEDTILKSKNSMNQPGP
METRIC: IC50 (µM)
Give the value in µM but do not write µM after it.

[
  {
    "COMPOUND": "COc1cc(C(C)(C)CN)c(C)cc1Nc1ncc(Cl)c(Nc2ccccc2S(=O)(=O)C(C)C)n1 [Example 56]",
    "IC50 (µM)": 0.0049
  },
  {
    "COMPOUND": "COc1cc(CCN)c(C)cc1Nc1ncc(Cl)c(Nc2ccccc2S(=O)(=O)C(C)C)n1 [Example 55]",
    "IC50 (µM)": 0.0027
  }
]

Moving on to another compound below.
compound COc1cc(C(C)(C)CNC=O)c(C)cc1Nc1ncc(Cl)c(Nc2ccccc2S(=O)(=O)C(C)C)n1 [Example 59] , IC50 observed: 0.0078
